- TGT: M4 muscarinic receptor (Homo sapiens)
- Construct: expressed in transfected cells; host or cells: CHO (M4-CHO)
- METHOD_SUMMARY: Functional mobilization of intracellular calcium (FLIPR) in M4-CHO cells
- Assay type: cell-based
- CONDITION_DETAILS: Table 4; 100% efficacy is the maximum response obtained with the Carbachol control
// Emax lookup, one value per entry

In the examples that follow, each entry is paired with its recorded Emax.
Cc1ccc2c(c1)C1(CCN(CC3CC4CCC(C4)C3)CC1)CN2 (stereo not drawn)    < 25%
COC1CCCCC1N1CCC2(CC1)CN(C(C)=O)c1ccc(F)cc12 (stereo not drawn)    < 25%
CN(C)C(=O)N1CC2(CCN(C3CCN(C(=O)OCC(F)F)CC3)CC2)c2cc(F)ccc21    25 to 100%
O=C(N[C@H]1CC2(CCN(CC3CCCCC3)CC2)c2ccccc21)C1CC1    25 to 100%
Cc1ccc2c(c1)C(=O)CC21CCN(CC2C[C@H]3CC[C@H]2C3)CC1 (stereo partly drawn)    25 to 100%

Now, please, on to the next compound.
response.value for CC(=O)N[C@H]1CC2(CCN(CC3CCN(C(=O)O[C@@H]4CCOC4)CC3)CC2)c2ccccc21 (field: Emax) = < 25%

###

Emax values, listed per item
- TGT: M1 muscarinic receptor (Homo sapiens, UniProt P11229)
- Construct: expressed in transfected cells; host or cells: CHO (M1-CHO)
- Sequence (P11229 whole entry): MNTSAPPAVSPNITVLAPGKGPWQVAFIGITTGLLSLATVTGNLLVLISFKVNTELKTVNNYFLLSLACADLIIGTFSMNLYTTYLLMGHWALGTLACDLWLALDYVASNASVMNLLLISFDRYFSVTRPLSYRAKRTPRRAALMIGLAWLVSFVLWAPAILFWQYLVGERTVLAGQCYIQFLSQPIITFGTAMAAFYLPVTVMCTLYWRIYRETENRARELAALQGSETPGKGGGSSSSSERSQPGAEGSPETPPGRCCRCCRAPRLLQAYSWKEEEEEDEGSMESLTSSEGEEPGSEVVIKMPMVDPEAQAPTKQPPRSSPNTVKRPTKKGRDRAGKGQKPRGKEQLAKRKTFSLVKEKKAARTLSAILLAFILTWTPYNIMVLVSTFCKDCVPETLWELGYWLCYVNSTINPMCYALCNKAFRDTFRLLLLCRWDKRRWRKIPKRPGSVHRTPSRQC
- METHOD_SUMMARY: Functional mobilization of intracellular calcium (FLIPR) in M1-CHO cells
- Type: cell-based
- CONDITION_DETAILS: M1 receptor, calcium mobilization; read-out: M1 Efficacy
- Experimental: Functional Mobilization of Intracellular Calcium to Determine Muscarinic Receptor Activity: […] Compounds are prepared at a 2× fold concentration in a 96-well plate (round bottom, Costar Corning cat# 3656), by reconstituting the pre-spotted compounds in bath 1 containing 1 mM probenecid. […] In both assay modes, the fluorescence is recorded for 60 sec (excitation wavelength is […] and emission wavelength 540 nm) using the FLIPR 3 instrument. […]

Solved entries:
CCOC(=O)N1C2CCC1CC(N1CCC3(CC1)CN(C(C)=O)c1ccccc13)C2 (stereo not shown)    < 65%
c1ccc2c(c1)NCC21CCN(CC2CC3CCC2C3)CC1 (stereo not shown)    < 65%
CC(C)COC(=O)N1C2CCC1CC(N1CCC3(CC1)COc1ccc(F)cc13)C2 (stereo not shown)    > 85%
CCOC(=O)N1CCC(N2CCC3(CC2)CN(C(C)=O)c2ccc(-c4ccoc4)cc23)CC1    < 65%

Lab note: measured Emax of CCCCC(=O)N1CC2(CCN(C3CCN(C(=O)OCC)CC3)CC2)c2cc(F)ccc21 was 65 to 85%

The compound listed as C1=C[C@H]2C[C@H]1C[C@H]2CN1CCC2(CCc3ccccc32)CC1 shows Emax equal to < 65%

So, CC(=O)N1CC2(CCN(C3CC4CCC(C4)C3)CC2)c2cc(F)ccc21 (stereo not shown) ? Its Emax was > 85%

###

This listing pairs compounds with measured Emax.
- TGT: M4 muscarinic receptor (Homo sapiens, UniProt P08173)
- Construct: expressed in transfected cells; host or cells: CHO (M4-CHO)
- Sequence (P08173 1-479): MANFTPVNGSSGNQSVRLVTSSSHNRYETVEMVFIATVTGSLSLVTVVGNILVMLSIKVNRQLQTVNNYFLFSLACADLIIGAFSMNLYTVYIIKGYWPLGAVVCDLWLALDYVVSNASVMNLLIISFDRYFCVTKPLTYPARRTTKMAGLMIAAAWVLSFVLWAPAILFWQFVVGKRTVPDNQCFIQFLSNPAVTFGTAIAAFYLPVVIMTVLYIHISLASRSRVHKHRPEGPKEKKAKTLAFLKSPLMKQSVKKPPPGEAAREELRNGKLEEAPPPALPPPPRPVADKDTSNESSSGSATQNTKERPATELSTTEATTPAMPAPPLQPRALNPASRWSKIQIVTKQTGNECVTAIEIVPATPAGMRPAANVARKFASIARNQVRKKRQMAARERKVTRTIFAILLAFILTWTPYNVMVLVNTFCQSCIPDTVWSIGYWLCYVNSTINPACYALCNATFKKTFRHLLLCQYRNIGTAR
- METHOD_SUMMARY: Functional mobilization of intracellular calcium (FLIPR) in M4-CHO cells
- Assay type: cell-based
- CONDITION_DETAILS: M4 receptor, calcium mobilization; read-out: M4 Efficacy

Here are 3 compounds together with their reported answers.
c1ccc2c(c1)NCC21CCN(C2CCC3CCC2C3)CC1 (stereo not drawn) [compound 244]    65 to 85%
CC(=O)N1CC2(CCN(C3CCCC3)CC2)c2cc(F)ccc21 [compound 343]    < 65%
CC(=O)N[C@H]1CC2(CCN(C3C4CC5CC(C4)CC3C5)CC2)c2ccccc21 (stereo partly drawn) [compound 4]    < 65%

GET /value?item= CC(=O)NC1CC2(CCN(C[C@H]3C[C@H]4CC[C@H]3C4)CC2)c2ccccc21 (stereo partly drawn) [compound 161] &field=Emax returns > 85%

Value of Emax reported for the compound CC(=O)N1CC2(CCN(CC3CC4CCC3C4)CC2)c2cc(C)ccc21 (stereo not drawn) [compound 118] is < 65%

Noted for CCOC(=O)N1C2CCC1CC(N1CCC3(CC1)CN(C(=O)c1cc(C)oc1C)c1ccc(F)cc13)C2 (stereo not drawn) [compound 73] : its Emax reads 65 to 85%

###

A collection of compounds and their measured Emax
- TGT: M1 muscarinic receptor (Homo sapiens, UniProt P11229)
- Construct: expressed in transfected cells; host or cells: CHO (M1-CHO)
- METHOD_SUMMARY: Functional mobilization of intracellular calcium (FLIPR) in M1-CHO cells
- Assay type: cell-based
- CONDITION_DETAILS: Table 4; 100% efficacy is the maximum response obtained with the Carbachol control

Here are 2 compounds together with their reported answers.
Cc1cc(C(=O)N2CCC(N3CCC4(CC3)CN(C(=O)N(C)C)c3ccc(F)cc34)CC2)nn1C    < 25%
CCOC(=O)N1CCC(N2CCC3(CC2)CNc2ccc(F)cc23)CC1    25 to 100%

response.value for COCCOC(=O)N1CCC(N2CCC3(CC2)CN(CCOC)c2ccc(F)cc23)CC1 (field: Emax) = 25 to 100%

Just so you know, measured Emax for CN(C)C(=O)NC1CCC2(CCN(CC3CC4C=CC3C4)CC2)c2ccccc21 (centres unmarked) came out at < 25%

// Emax value for CCCCC(=O)N1CCC(N2CCC3(CC2)CN(C(=O)N(C)C)c2ccc(F)cc23)CC1 : 25 to 100%

###

The reader will find reported Emax values listed item by item below.
- TGT: M1 muscarinic receptor (Homo sapiens, UniProt P11229)
- Construct: expressed in transfected cells; host or cells: CHO (M1-CHO)
- METHOD_SUMMARY: Functional mobilization of intracellular calcium (FLIPR) in M1-CHO cells
- Format: cell-based
- CONDITION_DETAILS: M1 receptor, calcium mobilization; read-out: M1 Efficacy

O=C1CC2(CCN(C3CCCCCC3)CC2)c2ccccc2N1    65 to 85%
CCOC(=O)N1CCC(N2CCC3(CC2)CN(C(C)=O)c2ccc(-c4ccccc4F)cc23)CC1    > 85%
CCOC(=O)N1CCC(N2CCC3(CC2)CN(C(C)=O)c2ccc(-c4ccc(OC)cc4)cc23)CC1    < 65%

CCOC(=O)N1C2CCC1CC(N1CCC3(CC1)CN(S(C)(=O)=O)c1ccc(F)cc13)C2 (stereo not shown) on M1 muscarinic receptor (Homo sapiens, UniProt P11229) gives Emax = 65 to 85%

Item CCOC(=O)N1CCC(CN2CCC3(CC2)COc2ccc(F)cc23)CC1 was tested on M1 muscarinic receptor (Homo sapiens, UniProt P11229); the reported Emax is 65 to 85%

The compound CC(=O)N[C@@H]1CC2(CCN([C@H]3C[C@@H]4CC[C@H]3C4)CC2)c2ccccc21 , tested on M1 muscarinic receptor (Homo sapiens, UniProt P11229), showed Emax of > 85%

###

- TGT: M4 muscarinic receptor (Homo sapiens)
- Construct: expressed in transfected cells; host or cells: CHO (M4-CHO)
- METHOD_SUMMARY: Functional mobilization of intracellular calcium (FLIPR) in M4-CHO cells
- Format: cell-based
- CONDITION_DETAILS: M4 receptor, calcium mobilization; read-out: M4 Efficacy
METRIC_NAME: Emax

Here are 3 compounds together with their reported answers.
CC(=O)N[C@H]1CC2(CCN(C3CCC(c4ccccc4)CC3)CC2)c2ccccc21 (stereo partly drawn)    > 85%
CS(=O)(=O)N1CC2(CCN(C3CC4CCC(C3)N4C(=O)OC3CCC3)CC2)c2cc(F)ccc21 (stereo not drawn)    < 65%
CCCOC(=O)N1CCC(N2CCC3(CC2)CN(C(C)=O)c2ccc(F)cc23)CC1    < 65%

# lookup: CCOC(=O)C1CCC(N2CCC3(CC2)CN(C(C)=O)c2ccc(F)cc23)CC1 (stereo not drawn) on M4 muscarinic receptor (Homo sapiens), Emax = < 65%

Measured on M4 muscarinic receptor (Homo sapiens), CCOC(=O)N1CCC(N2CCC3(CC2)CN(C(C)=O)c2ccc(-c4ccc(C(C)=O)cc4)cc23)CC1 has a documented Emax of < 65%

Entry CN(C)C(=O)N1CC2(CCN(C3CC4CCC(C3)N4C(=O)O[C@H]3CCOC3)CC2)c2cc(F)ccc21 (stereo partly drawn) , tested on M4 muscarinic receptor (Homo sapiens), has a reported Emax of < 65%

M4 muscarinic receptor (Homo sapiens) assay, compound CCOC(=O)N1CCC(CN2CCC3(CC2)CC(=O)Nc2ccccc23)CC1 , recorded Emax = > 85%

Emax for M4 muscarinic receptor (Homo sapiens) with input COCCOC(=O)N1CCC(N2CCC3(CC2)CN(C(C)=O)c2ccc(C)cc23)CC1 equals > 85%

# lookup: CCOC(=O)N1C2CCC1CC(N1CCC3(CC1)C(=O)Nc1ccccc13)C2 (stereo not drawn) on M4 muscarinic receptor (Homo sapiens), Emax = < 65%

Value (Emax, M4 muscarinic receptor (Homo sapiens)) for record CCOC(=O)N1CCC(N2CCC3(CC2)CN(C(=O)O[C@H]2CCOC2)c2ccc(F)cc23)CC1 = 65 to 85%

Item: CC(=O)N1CC2(CCN(C3CCOCC3)CC2)c2cc(F)ccc21 | System: M4 muscarinic receptor (Homo sapiens) | Emax: < 65%

CCOC(=O)N1CCC(N2CCC3(CC2)CNc2ccc(Cl)cc23)CC1 on M4 muscarinic receptor (Homo sapiens) gives Emax = 65 to 85%

The compound CC(=O)N[C@H]1CC2(CCN(C3CCC[C@@H](C)C3)CC2)c2ccccc21 (stereo partly drawn) , when measured on M4 muscarinic receptor (Homo sapiens), yielded Emax of 65 to 85%

Reported M4 muscarinic receptor (Homo sapiens) Emax for item CCOC(=O)N1C2CCC1CC(N1CCC3(CC1)COc1ccc(Cl)cc13)C2 (stereo not drawn) was < 65%

Kindly note: M4 muscarinic receptor (Homo sapiens), Cc1ccc2c(c1)C1(CCN(CC3CCC4CCC3C4)CC1)CN2 (stereo not drawn) , Emax value reported: > 85%

Emax of CCOC(=O)N1C2CCC1CC(N1CCC3(CC1)CN(C(=O)c1ccncc1)c1ccc(F)cc13)C2 (stereo not drawn) , assay on M4 muscarinic receptor (Homo sapiens), is < 65%

// compound CCOC(=O)N1C2CCC1CC(N1CCC3(CC1)CNc1ccccc13)C2 (stereo not drawn) , assay M4 muscarinic receptor (Homo sapiens), Emax value: > 85%

Entry O=C(O[C@@H]1CCOC1)N1CC2(CCN(C3CC4CCC(C3)N4C(=O)O[C@H]3CCOC3)CC2)c2cc(F)ccc21 (stereo partly drawn) ; assay system M4 muscarinic receptor (Homo sapiens); Emax recorded at < 65%

I looked up COCCOC(=O)N1C2CCC1CC(N1CCC3(CC1)CN(C(C)=O)c1ccc(F)cc13)C2 (stereo not drawn) and its Emax for M4 muscarinic receptor (Homo sapiens) was 65 to 85%

Here CC(=O)N1CC2(CCN(C3CCN(C(=O)OC(C)C)CC3)CC2)c2cc(F)ccc21 was tested on M4 muscarinic receptor (Homo sapiens), and its Emax came to > 85%

Tested system M4 muscarinic receptor (Homo sapiens); Emax recorded for CS(=O)(=O)N[C@@H]1CC2(CCN(C[C@H]3C[C@H]4CC[C@H]3C4)CC2)c2ccccc21 was > 85%

Tested system M4 muscarinic receptor (Homo sapiens); Emax recorded for Clc1ccc2c(c1)C1(CCO2)CCN(C[C@@H]2C[C@H]3C=C[C@H]2C3)CC1 was > 85%

Field Emax (system: M4 muscarinic receptor (Homo sapiens)) for entry CCOC(=O)N1C2CCC1CC(N1CCC3(CC1)CN(C(C)=O)c1ccc(C)cc13)C2 (stereo not drawn) = 65 to 85%

Value (Emax, M4 muscarinic receptor (Homo sapiens)) for record CCOC(=O)N(C)[C@H]1CC2(CCN(C[C@H]3C[C@H]4CC[C@H]3C4)CC2)c2ccccc21 = > 85%
